# kon values compiled below
measurementTarget: alpha-synuclein (natural human wildtype alpha-synuclein) (human, UniProt P37840 1-140)
experimentalDetails: BLI, ForteBio Octet QK; apparent ka
testReadout: kon (M⁻¹ s⁻¹)

binder="Humanized 1H7 H5L2 (Hu1H7VHv5-Hu1H7VLv2) (antibody, V domains shown) VH: QVQLVQSGAEVKKPGASVKVSCKASGYTFTSYYIHWVRQAPGQGLEWMGWIYPGSGNTKYSEKFKGRATMTADTSTSTAYMELRSLRSDDTAVYYCARDGSYGFAYWGQGTLVTVSS VL: DIQLTQSPSSLSASVGDRVTITCKASQSVDYDGDSYMNWYQQKPGKAPKFLIYAASNLESGVPSRFSGSGSGTDFTLTISSLQPEDAATYYCQQSNEDPFTFGQGTKLEIK" testreadout=kon scaleunit="M⁻¹ s⁻¹" endpointresult=520000
binder="Humanized 1H7 H1L1 (Hu1H7VHv1-Hu1H7VLv1) (antibody, V domains shown) VH: QVQLVQSGAELKKPGASVKVSCKASGYSFTSYYIHWVKQAPGQGLEWIGWIYPGSGNTKYSEKFKGRATLTADTSTSTAYMELRSLRSDDTAVYFCARDGCYGFAYWGQGTLVTVSS VL: DIQLTQSPSSLSASVGDRVTITCKASQSVDYDGDSYMNWYQQKPGKAPKFLICAASNLESGVPSRFSGSGSGTDFTLTISSLQPEDAATYYCQQSNEDPFTFGQGTKLEIK" testreadout=kon scaleunit="M⁻¹ s⁻¹" endpointresult=250000
binder="Humanized 1H7 H5L4 (Hu1H7VHv5-Hu1H7VLv4) (antibody, V domains shown) VH: QVQLVQSGAEVKKPGASVKVSCKASGYTFTSYYIHWVRQAPGQGLEWMGWIYPGSGNTKYSEKFKGRATMTADTSTSTAYMELRSLRSDDTAVYYCARDGSYGFAYWGQGTLVTVSS VL: DIQLTQSPSSLSASVGDRVTITCKASQSVDYDGDSYMNWYQQKPGKAPKFLIYAASNLESGVPSRFSGSGSGTDFTLTISSLQPEDFATYYCQQSNEDPFTFGQGTKLEIK" testreadout=kon scaleunit="M⁻¹ s⁻¹" endpointresult=1.6e+06
